biological target: IFI16HinAB (Homo sapiens, UniProt Q16666-2 159-729); experiment: EMSA; low salt; 160 mM KCl; 60 mM KCl for IFI16HinAB; FAM probe 3-6 nM (FA) or 20 nM (EMSA); binding buffer pH and temperature not in the material; conditions: protein: recombinant; label: FAM
Sequence (Q16666 other isoform, or with tags, fused parts or gaps): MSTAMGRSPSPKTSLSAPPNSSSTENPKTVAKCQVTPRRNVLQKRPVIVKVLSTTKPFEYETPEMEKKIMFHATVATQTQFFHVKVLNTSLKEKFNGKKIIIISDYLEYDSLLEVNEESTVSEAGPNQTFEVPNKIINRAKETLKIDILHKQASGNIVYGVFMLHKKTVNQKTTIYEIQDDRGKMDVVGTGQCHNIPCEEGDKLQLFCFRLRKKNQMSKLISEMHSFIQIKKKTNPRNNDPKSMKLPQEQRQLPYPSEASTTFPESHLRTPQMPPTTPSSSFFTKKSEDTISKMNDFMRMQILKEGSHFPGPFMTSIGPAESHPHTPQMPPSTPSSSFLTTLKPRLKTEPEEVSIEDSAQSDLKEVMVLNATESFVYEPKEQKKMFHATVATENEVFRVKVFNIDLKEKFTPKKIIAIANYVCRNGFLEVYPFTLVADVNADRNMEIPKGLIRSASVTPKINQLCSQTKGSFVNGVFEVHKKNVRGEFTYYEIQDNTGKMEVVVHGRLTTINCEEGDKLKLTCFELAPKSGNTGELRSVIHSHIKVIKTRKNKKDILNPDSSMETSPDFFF
pKd: −log10 of the molar value.
Record form. Attribute: pKd. Fill in for each entry.

Quick batch: pKd for everything below.
1. AAAGAAAGAAAGAAAGAAAGAAAG (ssRNA) [24-base ssRNA_A]
2. UUUCUUUCUUUCUUUCUUUCUUUC (ssRNA) [24-base ssRNA_U]

1. ~6.30
2. ~6.30
